B1: LINE1-full (parent)
chain: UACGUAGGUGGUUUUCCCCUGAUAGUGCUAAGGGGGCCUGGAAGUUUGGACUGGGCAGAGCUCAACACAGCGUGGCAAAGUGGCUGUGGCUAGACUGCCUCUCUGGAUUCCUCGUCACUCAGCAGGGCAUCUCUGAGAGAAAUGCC

Variants of: B1
assay: self-cleavage, relative activity (ratio to wild type); higher = more cleavage; in vitro, sequencing; the parent is a self-cleaving ribozyme
experimental.endpoint: self-cleavage
// no unit, no text: just the number

   variant_code  reported
0     U13A C56A      0.05
1     U12C G32A      1.54

Query block: Quick one: self-cleavage of U112C A117C ?
Result block: 1.38

Query block: Cool, now U62C U91C
Result block: 0.04

Query block: Then what about the variant A31G U102C ?
Result block: 0.35

Ref: the RNAGym collection of RNA variant scans (doi:10.7554/elife.90254)
